- system-name: T1, human NMI (N-myc Interacting protein), recombinant protein (human, UniProt Q13287 1-307, limits assumed)
- T1 construct: Gene ID: 9111; also called hNMI; antigen
- T1 sequence (looked up): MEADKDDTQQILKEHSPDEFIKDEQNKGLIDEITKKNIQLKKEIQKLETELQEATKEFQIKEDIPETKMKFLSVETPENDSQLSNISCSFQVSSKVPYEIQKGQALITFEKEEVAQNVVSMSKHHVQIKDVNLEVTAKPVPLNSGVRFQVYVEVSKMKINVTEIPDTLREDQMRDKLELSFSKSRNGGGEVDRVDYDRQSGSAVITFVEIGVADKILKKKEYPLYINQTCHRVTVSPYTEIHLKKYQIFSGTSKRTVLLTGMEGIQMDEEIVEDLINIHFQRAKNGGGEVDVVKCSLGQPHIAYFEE
- assay-explanation: ELISA EC50 against parent 98G10
property-label: Fold decrease in affinity (fold)
Report the value in fold with no unit label.

// returns reported Fold decrease in affinity for input 98G10-6 (antibody, V domains shown, also called 98G10 T81Y (VH), T18R/C80P (VL)) VH: QEQLEESGGDLVKPEGSLTLTCTASGFSFSASYWICWVRQAPGKGLEWIACIYGGSSGSAYYASWAKGRFTISKTSSTTVYLQMTSLTAADTATYFCARAGYYNYGSAGDIYPSSFKLWGPGTLVTVSS VL: DIVMTQTPASVEAAVGGRVTINCQASQSISTALAWYQQKPGQPPKLLIYTASKVASGVPSRFSGSGSGTQFTLTISDLEPADAATYYCQNYYYSSSSITFGGGTEVVVK
1.02

// returns reported Fold decrease in affinity for input 98G10-5 (antibody, V domains shown, also called 98G10 T18R/C80P (VL)) VH: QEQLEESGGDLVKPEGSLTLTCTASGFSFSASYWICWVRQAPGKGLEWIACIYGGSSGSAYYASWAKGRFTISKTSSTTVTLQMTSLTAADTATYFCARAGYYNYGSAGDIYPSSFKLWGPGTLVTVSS VL: DIVMTQTPASVEAAVGGRVTINCQASQSISTALAWYQQKPGQPPKLLIYTASKVASGVPSRFSGSGSGTQFTLTISDLEPADAATYYCQNYYYSSSSITFGGGTEVVVK
1.44

// returns reported Fold decrease in affinity for input 98G10-3 (antibody, V domains shown, also called 98G10 T81Y (VH), C80P (VL)) VH: QEQLEESGGDLVKPEGSLTLTCTASGFSFSASYWICWVRQAPGKGLEWIACIYGGSSGSAYYASWAKGRFTISKTSSTTVYLQMTSLTAADTATYFCARAGYYNYGSAGDIYPSSFKLWGPGTLVTVSS VL: DIVMTQTPASVEAAVGGTVTINCQASQSISTALAWYQQKPGQPPKLLIYTASKVASGVPSRFSGSGSGTQFTLTISDLEPADAATYYCQNYYYSSSSITFGGGTEVVVK
1.06

// returns reported Fold decrease in affinity for input 98G10-1 (mutated antibody of Table 17-7) (antibody, V domains shown, also called 98G10 C80P (VL)) VH: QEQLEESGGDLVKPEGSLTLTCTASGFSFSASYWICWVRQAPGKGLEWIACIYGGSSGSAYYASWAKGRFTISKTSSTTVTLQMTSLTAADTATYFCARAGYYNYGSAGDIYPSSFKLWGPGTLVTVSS VL: DIVMTQTPASVEAAVGGTVTINCQASQSISTALAWYQQKPGQPPKLLIYTASKVASGVPSRFSGSGSGTQFTLTISDLEPADAATYYCQNYYYSSSSITFGGGTEVVVK
1.05

// returns reported Fold decrease in affinity for input 98G10-8 (antibody, V domains shown, also called 98G10 T23K/T75D/T81Y (VH), T18R/C80P (VL)) VH: QEQLEESGGDLVKPEGSLTLTCKASGFSFSASYWICWVRQAPGKGLEWIACIYGGSSGSAYYASWAKGRFTISKDSSTTVYLQMTSLTAADTATYFCARAGYYNYGSAGDIYPSSFKLWGPGTLVTVSS VL: DIVMTQTPASVEAAVGGRVTINCQASQSISTALAWYQQKPGQPPKLLIYTASKVASGVPSRFSGSGSGTQFTLTISDLEPADAATYYCQNYYYSSSSITFGGGTEVVVK
0.64

// returns reported Fold decrease in affinity for input 98G10-2 (antibody, V domains shown, also called 98G10 T81Y (VH)) VH: QEQLEESGGDLVKPEGSLTLTCTASGFSFSASYWICWVRQAPGKGLEWIACIYGGSSGSAYYASWAKGRFTISKTSSTTVYLQMTSLTAADTATYFCARAGYYNYGSAGDIYPSSFKLWGPGTLVTVSS VL: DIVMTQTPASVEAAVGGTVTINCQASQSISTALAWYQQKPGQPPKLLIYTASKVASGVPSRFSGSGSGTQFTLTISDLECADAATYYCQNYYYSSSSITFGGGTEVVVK
0.29

// returns reported Fold decrease in affinity for input 98G10-4 (antibody, V domains shown, also called 98G10 T23K (VH), C80P (VL)) VH: QEQLEESGGDLVKPEGSLTLTCKASGFSFSASYWICWVRQAPGKGLEWIACIYGGSSGSAYYASWAKGRFTISKTSSTTVTLQMTSLTAADTATYFCARAGYYNYGSAGDIYPSSFKLWGPGTLVTVSS VL: DIVMTQTPASVEAAVGGTVTINCQASQSISTALAWYQQKPGQPPKLLIYTASKVASGVPSRFSGSGSGTQFTLTISDLEPADAATYYCQNYYYSSSSITFGGGTEVVVK
1.07
